# System: DU-145 prostate
# ASSAY TEXT: NCI-60 one-dose screen, 48 h (100 = growth as untreated, 0 = no growth, -100 = all killed)
# CONDITION DETAILS: 10 µM unless noted
Compounds without any hit were thinned out: in the full panel of roughly 83,000, 20% have a hit.
Under this convention, true denotes growth strictly below 80% and false denotes growth at or above 80%.

Look over these answered cases.
# SMILES REPR, CATEGORY LABEL
rows = [
    ("O=S(=O)(NCCNc1nccc(-c2c(-c3ccccc3)nc3sccn23)n1)c1ccc(O)cc1", "true"),
    ("CCCCCC/C=C\\CCCCCCCCOc1ccc(CCOP(=O)(O)OCC[N+](C)(C)C)cc1", "false"),
    ("O=S(=O)(NCCCNc1cc(-c2cn(-c3ccccc3)nc2-c2cccc(O)c2)ccn1)c1ccc(Cl)cc1", "true"),
    ("CC(C)(C)OC(=O)N1C/C(=C\\c2cccs2)C(=O)/C(=C/c2cccs2)C1", "false"),
    ("CC(=O)Oc1cccc(OC(C)=O)c1OC(C)=O", "false"),
    ("c1ccn2nnnc2c1", "false"),
    ("CCN1C(=O)N[C@H]2[C@@H]3NC(=O)c4ccc(Cl)n4[C@@H]3C[C@]21O", "true"),
]

input: Check if growth falls below 80% for C=C1C(=O)O[C@H]2[C@H]1CC/C(COC(=O)NCc1ccc(OC)cc1)=C\CC[C@@]1(C)O[C@@H]21 .
output: true

Taken from PubChem BioAssay (NCI).
